- Tested on: Human betaherpesvirus 6
- Assay explanation: Antiviral activity against Human herpesvirus 6 infected in HEL assessed as reduction in virus-induce cytopathicity
- Assay type: functional, organism-based
Attribute measured: EC50 (µM)
// note: answer is a bare numeric in µM

Recorded EC50 for Nc1nc(N)c2ncn(C[C@H]3COP(=O)(OCC(F)(F)F)CO3)c2n1 (stereo partly specified) on Human betaherpesvirus 6 was 177

Recorded EC50 for CC(C)(C)C(=O)OCOP(=O)(O)CO[C@H](CO)Cn1cnc2c(N)nc(N)nc21 on Human betaherpesvirus 6 was 30.6

Recorded EC50 for CC(C)(C)C(=O)OCO[P@]1(=O)CO[C@@H](Cn2cnc3c(N)nc(N)nc32)CO1 on Human betaherpesvirus 6 was 14.6

Recorded EC50 for Nc1nc(N)c2ncn(C[C@@H](CO)OCP(=O)(O)O)c2n1 on Human betaherpesvirus 6 was 17.6

Recorded EC50 for CCCCCCCCCCCCCCCCCCOCCOP(=O)(O)CO[C@H](CO)Cn1cnc2c(N)nc(N)nc21 on Human betaherpesvirus 6 was 34.6

Recorded EC50 for CC(C)(C)C(=O)OCOP1(=O)CO[C@@H](Cn2cnc3c(N)nc(N)nc32)CO1 (stereo partly specified) on Human betaherpesvirus 6 was 7.63

Recorded EC50 for CCCCCCCCCCCCCCCCOCCCOP1(=O)CO[C@@H](Cn2cnc3c(N)nc(N)nc32)CO1 (stereo partly specified) on Human betaherpesvirus 6 was 0.16

Recorded EC50 for CCCCCCCCCCCCCCCCOCCCOP(=O)(O)CO[C@H](CO)Cn1cnc2c(N)nc(N)nc21 on Human betaherpesvirus 6 was 10.3
